# target desc: Histamine H1 receptor (Homo sapiens, UniProt P35367)
# Sequence (P35367 whole entry): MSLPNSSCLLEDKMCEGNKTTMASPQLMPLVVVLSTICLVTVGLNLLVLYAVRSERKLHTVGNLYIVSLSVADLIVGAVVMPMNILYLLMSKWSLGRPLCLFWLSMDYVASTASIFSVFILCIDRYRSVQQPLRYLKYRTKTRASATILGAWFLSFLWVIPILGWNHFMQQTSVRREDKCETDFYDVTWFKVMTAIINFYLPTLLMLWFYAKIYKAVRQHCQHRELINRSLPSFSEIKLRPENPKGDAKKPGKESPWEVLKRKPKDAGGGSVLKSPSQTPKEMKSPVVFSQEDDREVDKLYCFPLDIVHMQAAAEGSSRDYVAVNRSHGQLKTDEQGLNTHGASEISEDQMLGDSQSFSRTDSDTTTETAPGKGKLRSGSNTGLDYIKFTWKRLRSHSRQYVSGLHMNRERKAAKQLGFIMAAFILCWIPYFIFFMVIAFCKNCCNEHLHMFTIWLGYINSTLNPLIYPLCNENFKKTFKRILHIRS
# assay: Binding affinity against Histamine H1 receptor
pKi: −log10 of the molar value.

compound	pKi
C[C@@H]1C[C@H](C)N1C(=O)[C@@H]1C=C2c3cccc4[nH]cc(c34)CC2N(C)C1 (stereo partly specified)	6.30

---

# target desc: UniProt:P28221
# Sequence (P28221 whole entry): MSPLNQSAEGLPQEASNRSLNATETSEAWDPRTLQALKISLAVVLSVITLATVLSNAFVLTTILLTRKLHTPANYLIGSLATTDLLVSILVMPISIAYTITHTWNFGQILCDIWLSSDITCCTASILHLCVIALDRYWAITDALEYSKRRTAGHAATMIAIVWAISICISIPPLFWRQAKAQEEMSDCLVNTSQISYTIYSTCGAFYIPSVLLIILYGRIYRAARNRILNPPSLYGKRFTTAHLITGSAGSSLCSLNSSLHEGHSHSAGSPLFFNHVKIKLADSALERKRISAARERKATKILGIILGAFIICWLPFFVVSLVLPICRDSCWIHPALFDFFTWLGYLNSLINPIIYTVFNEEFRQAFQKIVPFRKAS
# assay: Binding affinities against 5-hydroxytryptamine 1D receptor alpha
pKi: −log10 of the molar value.

compound	pKi
C[C@@H]1C[C@H](C)N1C(=O)[C@@H]1C=C2c3cccc4[nH]cc(c34)CC2N(C)C1 (stereo partly specified)	8.43

---

The compounds listed here are annotated with their Ki.
# target desc: D(1A) dopamine receptor (Mus musculus)
# Sequence (Q61616 whole entry): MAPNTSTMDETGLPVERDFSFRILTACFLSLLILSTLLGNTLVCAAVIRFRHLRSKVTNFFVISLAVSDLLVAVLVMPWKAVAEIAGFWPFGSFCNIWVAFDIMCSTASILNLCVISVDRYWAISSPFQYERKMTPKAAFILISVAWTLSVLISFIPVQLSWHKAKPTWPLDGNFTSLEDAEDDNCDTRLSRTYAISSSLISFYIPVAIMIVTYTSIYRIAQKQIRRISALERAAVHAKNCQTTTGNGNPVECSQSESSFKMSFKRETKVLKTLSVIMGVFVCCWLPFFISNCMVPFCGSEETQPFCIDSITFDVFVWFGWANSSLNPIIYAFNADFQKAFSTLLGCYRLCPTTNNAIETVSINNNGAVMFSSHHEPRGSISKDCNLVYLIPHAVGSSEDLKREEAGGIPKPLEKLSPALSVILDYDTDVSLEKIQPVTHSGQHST
# assay: Binding affinity towards Dopamine receptor D1

compound	target desc	quantity unit	Ki
C[C@H]1C[C@H](C)N1C(=O)[C@@H]1C=C2c3cccc4[nH]cc(c34)CC2N(C)C1 (some centres not stated)	D(1A) dopamine receptor (Mus musculus)	µM	0.29
C[C@@H]1C[C@@H](C)N1C(=O)[C@@H]1C=C2c3cccc4[nH]cc(c34)CC2N(C)C1 (some centres not stated)	D(1A) dopamine receptor (Mus musculus)	µM	0.34

These measurements were taken from ChEMBL document CHEMBL1135791.
